Recorded values, source PubChem BioAssay (EPA / NIEHS).

Read-out: Transforming Growth Factor (TGFB1), TGFB1 (gene 7040)
procedure.summary: LTEA_HepaRG_TGFB1: Life Technologies and Expression Analysis (LTEA) Assay for Transforming Growth Factor (TGFB1) Transporter using HepaRG (AID 2283533)
applied.conditions: mRNA level, 48 h; actives raise or lower the signal
Active and inactive are the calls of the source. How the source made its calls: active means hit-call score of the fitted dose curve at least 0.9, where 1 is the maximum; inactive means score below 0.9.
Return exactly one item of 1 for active, -1 for inactive

Some solved entries appear below for comparison.
{"compound": "CCCCCCCCCCCC[N+](C)(C)C", "discrete.label": 1}
{"compound": "OC12N=C(c3ccccc3)SC1Cc1cc(Cl)ccc12 (stereo unspecified)", "discrete.label": -1}
{"compound": "Cc1cc(F)ccc1-c1cc(N2CC[C@@H](O)[C@H]2CO)ncc1N(C)C(=O)C(C)(C)c1cc(C(F)(F)F)cc(C(F)(F)F)c1", "discrete.label": 1}

Outcome? CCN(CC)C(=O)c1cc(S(=O)(=O)Cc2ccccc2)c(N2CCC(c3ccccc3)CC2)cc1N(CC)CCN(C)C -1

Try COCC(C)OCC(C)OCC(C)O (stereo unspecified) next. -1

Try O=C(Nc1ccc(Cl)cc1)Nc1ccc(Cl)c(Cl)c1 next. 1

Try CCCCCCCCCC(=O)O next. -1

Try Cc1oc2c(NC(=O)c3c(Cl)cccc3Cl)cccc2c1C(C)(C)O next. 1

Try CO[C@H]1/C=C/O[C@@]2(C)Oc3c(C)c(O)c4c(O)c(c(/C=N/N5CCN(C)CC5)c(O)c4c3C2=O)NC(=O)/C(C)=C\C=C\[C@H](C)[C@H](O)[C@@H](C)[C@@H](O)[C@@H](C)[C@H](OC(C)=O)[C@@H]1C next. -1

Try CCCCCCCCOc1ccc(C(=O)c2ccccc2)c(O)c1 next. -1

Try O=C1c2ccccc2C(=O)N1CCc1noc(-c2ccc(CN3CCCCCC3)s2)n1 next. -1

Try CC1(C)NC(=O)N(c2ccc([N+](=O)[O-])c(C(F)(F)F)c2)C1=O next. -1

Try CC/C(=C(/CC)c1ccc(O)cc1)c1ccc(O)cc1 next. 1

Try C[C@]12CC[C@@H]3c4ccc(O)cc4CC[C@H]3[C@@H]1CC[C@H]2O next. 1

Try CCCCCc1ccc(N)cc1 next. -1

Try Cc1c2ccccc2c(C)c2c1ccc1ccccc12 next. 1

----------
system.tested: guinea pig Opioid, Kappa 1 Receptor (OpiateK), OPRK1 (gene 100135587) (UniProt P41144)
Sequence (P41144 whole entry, looked up): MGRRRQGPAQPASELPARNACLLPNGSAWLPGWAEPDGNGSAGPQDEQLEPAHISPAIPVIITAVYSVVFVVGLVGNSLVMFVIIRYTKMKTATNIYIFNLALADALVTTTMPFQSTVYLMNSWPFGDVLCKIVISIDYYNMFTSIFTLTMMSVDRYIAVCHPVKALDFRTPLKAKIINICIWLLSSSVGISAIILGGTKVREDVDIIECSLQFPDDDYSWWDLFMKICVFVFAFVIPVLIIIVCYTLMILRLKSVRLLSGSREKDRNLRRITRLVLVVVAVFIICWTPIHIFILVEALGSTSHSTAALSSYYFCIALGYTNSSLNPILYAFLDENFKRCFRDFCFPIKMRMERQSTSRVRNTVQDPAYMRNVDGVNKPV
procedure.summary: NVS_GPCR_gOpiateK: NovaScreen (NVS) G Protein-Coupled Receptor Assay for guinea pig Opioid, Kappa 1 Receptor (OpiateK) (AID 2283252);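 further: radioligand displacement from kappa opioid receptor in guinea pig cerebellar membranes; active means reduced radioligand binding relative to DMSO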
Records with an inconclusive call do not appear. The source made the active and inactive calls. The calls were made as follows: active = hit-call score of the fitted dose curve at least 0.9, where 1 is the maximum; inconclusive = response in the unintended direction; inactive = score below 0.9.
Return exactly one item of active, inactive

{"structure.notation": "O=c1[nH]sc2ccccc12", "discrete.label": "active"}
{"structure.notation": "CCCCCCCC[Si](OCC)(OCC)OCC", "discrete.label": "inactive"}
{"structure.notation": "Cc1occc1C(=O)Nc1ccc(C(=O)N2CCC(F)(F)/C(=C\\C(=O)N3CCC(N4CCCCC4)CC3)c3ccccc32)cc1", "discrete.label": "active"}
{"structure.notation": "COc1ccc2cc(S(=O)(=O)N[C@H](CC(=O)N[C@H](Cc3ccc(CN4[C@H](C)CCC[C@@H]4C)cc3)C(=O)N(C)C(C)C)c3ccc4c(c3)OCO4)ccc2c1", "discrete.label": "active"}

Now for another entry.
Outcome? CC/C(=C(/CC)c1ccc(O)cc1)c1ccc(O)cc1 active

----------
Read-out: CD38, CD38 (gene 952)
procedure.summary: BSK_SAg_CD38: BioMAP Diversity Plus: SAg Assay for CD38 Biomarker Activity (AID 2283087)
applied.conditions: primary human HUVEC with PBMC; actives raise or lower the signal
Active and inactive are the calls of the source. How the source made its calls: active means hit-call score of the fitted dose curve at least 0.9, where 1 is the maximum; inactive means score below 0.9.
Return exactly one item of active, inactive

Some solved entries appear below for comparison.
{"molecule": "CN1C(=O)N(c2ccccc2Br)Cc2cnc(Nc3ccc4c(c3)OCC(CO)O4)nc21 (centres undefined)", "discrete.label": "active"}
{"molecule": "CN1C(=O)CC[C@H]1c1cccnc1", "discrete.label": "inactive"}
{"molecule": "Clc1cc(Cl)c2c(c1)N=C1CCCCCN1C2", "discrete.label": "inactive"}
{"molecule": "O=c1ccc2ccccc2o1", "discrete.label": "inactive"}
{"molecule": "CCCCCCCCN(C)CCCCCCCC", "discrete.label": "inactive"}
{"molecule": "Clc1ccccc1C(c1ccccc1)(c1ccccc1)n1ccnc1", "discrete.label": "active"}
{"molecule": "COc1cccc([C@H](O)C2CCN(CCc3ccc(F)cc3)CC2)c1OC", "discrete.label": "inactive"}
{"molecule": "OC12N=C(c3ccccc3)SC1Cc1cc(Cl)ccc12 (centres undefined)", "discrete.label": "inactive"}

Now for another entry.
Outcome? Cc1cc(F)ccc1-c1cc(N2CC[C@@H](O)[C@H]2CO)ncc1N(C)C(=O)C(C)(C)c1cc(C(F)(F)F)cc(C(F)(F)F)c1 active

----------
Tested on: DIO1 (gene 1733)
procedure.summary: CCTE_GLTED_hDIO1: CCTE's human Deiodinase 1 (DIO1) Inhibition Assay, Great Lakes Toxicology and Ecology Division (GLTED) Lab (AID 2283987);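 further: isolated human DIO1 enzyme in a cell-free setup rather than cells; enzyme activity read as free iodide liberated from substrate via Sandell-Kolthoff colorimetry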
Records with an inconclusive call do not appear. Calls of active or inactive are those of the source. How the source made its calls: active means hit-call score of the fitted dose curve at least 0.9, where 1 is the maximum; inconclusive means response in the unintended direction; inactive means score below 0.9.
# AC50 values compiled below

{"molecule": "OC12N=C(c3ccccc3)SC1Cc1cc(Cl)ccc12 (stereo unspecified)", "reported.value": "21.1 µM (active)"}
{"molecule": "CCOC(=O)O[C@H](C)OC(=O)c1ccc2c(c1)cc(C(=O)NC1CCN(C(C)C)CC1)n2Cc1cc(-c2ccc(Cl)s2)on1", "reported.value": "97.5 µM (active)"}
{"molecule": "CCCCCCCCCCCC[N+](C)(C)C", "reported.value": "83.2 µM (active)"}
{"molecule": "CCN(CC)C(=O)c1cc(S(=O)(=O)Cc2ccccc2)c(N2CCC(c3ccccc3)CC2)cc1N(CC)CCN(C)C", "reported.value": "40 µM (active)"}

Record request: AC50 value, item NCc1cccc(C2CCN(C(=O)c3ccc(C#Cc4ccccc4F)o3)CC2)c1 88.6 µM (active)

Try CC(C)(c1cc(Br)c(O)c(Br)c1)c1cc(Br)c(O)c(Br)c1 next. 37.6 µM (active)

----------
procedure.summary: NVS_IC_rCaBTZCHL: NovaScreen (NVS) Ion Channel Assay for Calcium Channel, Type L, Benzothiazepine Site (CaBTZCHL) (AID 2283337)
Records with an inconclusive call do not appear. Active and inactive are the calls of the source. How the source made its calls: active means hit-call score of the fitted dose curve at least 0.9, where 1 is the maximum; inconclusive means response in the unintended direction; inactive means score below 0.9.
Return exactly one item of T (active), F (inactive)

{"structure.notation": "CCCCCCCCCCCC[N+](C)(C)C", "discrete.label": "T"}
{"structure.notation": "CCN(Cc1cccnc1)C(=O)c1cccc(Cl)c1[C@]1(C)C(=O)N(Cc2ccc(OC)cc2OC)c2ccc(Cl)cc21", "discrete.label": "T"}
{"structure.notation": "Clc1cc(Cl)c2c(c1)N=C1CCCCCN1C2", "discrete.label": "F"}

Now for another entry.
Outcome? CCOC(=O)O[C@H](C)OC(=O)c1ccc2c(c1)cc(C(=O)NC1CCN(C(C)C)CC1)n2Cc1cc(-c2ccc(Cl)s2)on1 T

----------
Read-out: HGF (gene 3082)
procedure.summary: LTEA_HepaRG_HGF: Life Technologies and Expression Analysis (LTEA) Assay for Hepatocyte Growth Facto (HGF) using HepaRG (AID 2283505)
applied.conditions: mRNA level, 48 h; actives raise or lower the signal
The source made the active and inactive calls. The calls were made as follows: active = hit-call score of the fitted dose curve at least 0.9, where 1 is the maximum; inactive = score below 0.9.
value.kind: AC50

// known answers, use as guide
{"structure.notation": "COc1cccc([C@H](O)C2CCN(CCc3ccc(F)cc3)CC2)c1OC", "value.kind": "AC50", "reported.value": "inactive"}
{"structure.notation": "Cc1oc2c(NC(=O)c3c(Cl)cccc3Cl)cccc2c1C(C)(C)O", "value.kind": "AC50", "reported.value": "85.7 µM (active)"}
{"structure.notation": "CC1=CC(=O)/C(=C(/C)O)C(=O)O1", "value.kind": "AC50", "reported.value": "inactive"}
{"structure.notation": "Clc1ccccc1C(c1ccccc1)(c1ccccc1)n1ccnc1", "value.kind": "AC50", "reported.value": "26.7 µM (active)"}
{"structure.notation": "O=c1ccc2ccccc2o1", "value.kind": "AC50", "reported.value": "inactive"}

Record request: AC50 value, item O=C1CCC(C2CCCCC2)CC1 inactive

Try COc1cc(C(=O)NC2CCN(C)CC2)ccc1Nc1ncc2c(n1)N(C1CCCC1)CC(F)(F)C(=O)N2C next. inactive

Try O=C=NCCCCCCN=C=O next. inactive

Try CCN(CC)C(=O)c1cc(S(=O)(=O)Cc2ccccc2)c(N2CCC(c3ccccc3)CC2)cc1N(CC)CCN(C)C next. inactive

Try CCN(Cc1cccnc1)C(=O)c1cccc(Cl)c1[C@]1(C)C(=O)N(Cc2ccc(OC)cc2OC)c2ccc(Cl)cc21 next. 21.9 µM (active)

Try NC(=O)c1nc(-c2cccc(-c3cc(F)ccc3OCC(F)(F)C(F)(F)F)c2)n[nH]1 next. 77.2 µM (active)
